# Study System: Aldo-keto reductase family 1 member C2 (Homo sapiens, UniProt P52895)
# Sequence (P52895 whole entry): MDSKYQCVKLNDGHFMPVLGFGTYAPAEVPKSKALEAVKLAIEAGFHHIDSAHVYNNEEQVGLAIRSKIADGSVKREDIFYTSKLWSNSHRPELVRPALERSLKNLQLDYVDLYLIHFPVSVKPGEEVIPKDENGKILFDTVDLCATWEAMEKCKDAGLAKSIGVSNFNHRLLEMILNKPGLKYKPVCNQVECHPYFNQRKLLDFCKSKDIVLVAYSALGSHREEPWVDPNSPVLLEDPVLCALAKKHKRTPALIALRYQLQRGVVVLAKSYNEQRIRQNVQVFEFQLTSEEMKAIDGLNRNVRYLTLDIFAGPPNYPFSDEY
# Run Description: Inhibition of recombinant N-terminal GST-tagged human AKR1C2 expressed in Escherichia coli BL21 (DE) Codon Plus RP cells using S-tetralol as substrate in presence of NADP+ by fluorimetric analysis
Overview of recorded IC50 for various compounds
Expressed in µM, but write only the number.

Solved entries:
Oc1noc2ccc(Nc3cccc(C(F)(F)F)c3)cc12 66.9
O=C(Nc1cccc(C(F)(F)F)c1)c1c(O)nnn1Cc1ccc(OC(F)(F)F)cc1 54.9
Oc1noc2cccc(Nc3cccc(S(F)(F)(F)(F)F)c3)c12 4.29
O=[N+]([O-])c1cccc(Nc2cccc3onc(O)c23)c1 5.7
COc1ccc(Cn2nnc(O)c2C(=O)Nc2cccc(C(F)(F)F)c2)cc1OC 108

Find the recorded IC50 belonging to "Oc1noc2cccc(Nc3cc(C(F)(F)F)cc(C(F)(F)F)c3)c12" and report it.
119

Which IC50 reading was recorded for the compound "Oc1noc2cccc(Nc3cccc(C(F)(F)F)c3)c12" ?
4.38

Value source: ChEMBL document CHEMBL4229374
